IC50 by entry:
Target: Small ubiquitin-related modifier 1 (Homo sapiens, UniProt P63165)
Sequence (P63165 whole entry): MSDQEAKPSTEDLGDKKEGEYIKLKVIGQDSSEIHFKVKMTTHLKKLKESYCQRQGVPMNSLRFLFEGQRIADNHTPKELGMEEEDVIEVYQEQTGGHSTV
Test: SUMO1 protein interaction blockers, potency – biochemical, fluorescence polarization, uHTS hits, dose response (AID 624382)
Type: functional
Settings: read-out: IC50_Mean
The source made the active and inactive calls. No stated cut-off is given here; in the data, active = IC50 of 20 µM or less and inactive = more.
MEASURED PARAMETER: IC50

COMPOUND	READING
COc1ccc(-c2nnc(Nc3ccc(S(=O)(=O)Nc4nccs4)cc3)c3ccccc23)cc1	> 66.6 µM (inactive)
CCOC(=O)C1=C(COc2ccccc2)NC(=O)NC1c1ccc(Cl)cc1 (centres undefined)	> 66.6 µM (inactive)
COc1ccc(-c2csc(/C(C#N)=C\c3ccc(O)c([N+](=O)[O-])c3)n2)cc1OC	51.3 µM (inactive)
O=S(=O)(c1cc(O)ccc1O)c1cccc2c(S(=O)(=O)c3cc(O)ccc3O)cccc12	> 66.6 µM (inactive)
